- Tested on: Wnt activity (Sp5-Luc reporter, SW480 colon carcinoma cells)
- experiment-notes: Sp5-Luc Wnt reporter gene assay in SW480 colon carcinoma cells
- Format: cell-based
- particulars: Homo sapiens; SW480 cells stably expressing Sp5-Luc reporter; 42 h incubation; BrightGlo luminescence normalized to DMSO
measurement-name: IC50 (nM)

{"smi": "O=C(Nc1cncc(-c2cnc3[nH]nc(-c4nc5c(-c6ccncc6)nccc5[nH]4)c3c2)c1)C1CCCCC1", "assay-system": "Wnt activity (Sp5-Luc reporter, SW480 colon carcinoma cells)", "unit-abbrev": "nM", "reported-value": 1120}
{"smi": "Cn1cc(-c2cnc3[nH]nc(-c4nc5c(-c6cccc(F)c6)nccc5[nH]4)c3c2)cn1", "assay-system": "Wnt activity (Sp5-Luc reporter, SW480 colon carcinoma cells)", "unit-abbrev": "nM", "reported-value": 12}
{"smi": "CC(C)(C)C(=O)Nc1cncc(-c2cnc3[nH]nc(-c4nc5c(-c6ccc(F)cc6)nccc5[nH]4)c3c2)c1", "assay-system": "Wnt activity (Sp5-Luc reporter, SW480 colon carcinoma cells)", "unit-abbrev": "nM", "reported-value": 152}
{"smi": "CN(C)c1cncc(-c2cnc3[nH]nc(-c4nc5c(N6CCCCC6)nccc5[nH]4)c3c2)c1", "assay-system": "Wnt activity (Sp5-Luc reporter, SW480 colon carcinoma cells)", "unit-abbrev": "nM", "reported-value": 777}
{"smi": "Cc1ccncc1-c1cnc2[nH]nc(-c3nc4c(-c5ccsc5)nccc4[nH]3)c2c1", "assay-system": "Wnt activity (Sp5-Luc reporter, SW480 colon carcinoma cells)", "unit-abbrev": "nM", "reported-value": 18}
{"smi": "O=C(Nc1cncc(-c2cnc3[nH]nc(-c4nc5c(-c6ccccc6F)nccc5[nH]4)c3c2)c1)C1CCCC1", "assay-system": "Wnt activity (Sp5-Luc reporter, SW480 colon carcinoma cells)", "unit-abbrev": "nM", "reported-value": 60.2}

###

- System: Wnt activity (Sp5-Luc reporter, SW480 colon carcinoma cells)
- experiment-notes: Sp5-Luc Wnt reporter gene assay in SW480 colon carcinoma cells
- Assay type: cell-based
- particulars: Homo sapiens; SW480 cells stably expressing Sp5-Luc reporter; 42 h incubation; BrightGlo luminescence normalized to DMSO
measurement-name: IC50 (nM)

{"smi": "O=C(CC1CCNCC1)Nc1cncc(-c2cnc3[nH]nc(-c4nc5c(-c6cccc(F)c6)nccc5[nH]4)c3c2)c1", "measurement-name": "IC50", "reported-value": 868}
{"smi": "Fc1cccc(-c2nccc3[nH]c(-c4n[nH]c5ncc(-c6cncc(OC7CCNCC7)c6)cc45)nc23)c1", "measurement-name": "IC50", "reported-value": 315}
{"smi": "Fc1ccc(-c2nccc3[nH]c(-c4n[nH]c5ncc(-c6cncnc6)cc45)nc23)cc1", "measurement-name": "IC50", "reported-value": 155}
{"smi": "Cc1ccncc1-c1cnc2[nH]nc(-c3nc4c(-c5cc(F)cc(CNS(C)(=O)=O)c5)nccc4[nH]3)c2c1", "measurement-name": "IC50", "reported-value": 8}

###

- Test system: Wnt activity (Sp5-Luc reporter, SW480 colon carcinoma cells)
- experiment-notes: Sp5-Luc Wnt reporter gene assay in SW480 colon carcinoma cells
- Format: cell-based
- particulars: Homo sapiens; SW480 cells stably expressing Sp5-Luc reporter; 42 h incubation; BrightGlo luminescence normalized to DMSO
Below, each entry is listed with its recorded IC50.

{"smi": "CCC(=O)Nc1cncc(-c2cnc3[nH]nc(-c4nc5c(N6CCCCC6)nccc5[nH]4)c3c2)c1", "value-comparator": "=", "IC50 [µM]": 0.148}
{"smi": "CC(C)C(=O)Nc1cncc(-c2cnc3[nH]nc(-c4nc5c(-c6cccnc6)nccc5[nH]4)c3c2)c1", "value-comparator": ">", "IC50 [µM]": 10}
{"smi": "CCCCC(=O)Nc1cncc(-c2cnc3[nH]nc(-c4nc5c(-c6ccccn6)nccc5[nH]4)c3c2)c1", "value-comparator": "=", "IC50 [µM]": 6.16}
{"smi": "Fc1ccc(-c2nccc3[nH]c(-c4n[nH]c5ncc(-c6cncc(CN7CCCC7)c6)cc45)nc23)cc1", "value-comparator": ">", "IC50 [µM]": 10}
